Every entry's value here was drawn from PubChem BioAssay (NCI).

- Test system: SNB-75 CNS
- experiment-notes: NCI-60 one-dose screen, 48 h (100 = growth as untreated, 0 = no growth, -100 = all killed)
- test-conditions: 10 µM unless noted
About 83,000 compounds went through this panel and 20% of them were active in at least one assay; those are over-represented in the sample as a whole. The source made the active and inactive calls. Rule for the calls: active = growth percent below 10; inactive = the rest.
assay-readout: growth

CCCCCCCCc1cccc(CC(=O)Nc2ccc(C)cc2C(=O)O)c1; 74.1% [25 µM] (inactive)
Cc1ccc(S(=O)(=O)Nc2ccc(-c3ccc4c(c3)NC(=O)/C4=C\c3ccc[nH]3)cc2)cc1; 96.1% (inactive)
Nc1cc(-c2c[nH]c3ccc(Cl)cc23)nc2cc(-c3c[nH]c4ccccc34)nn12; 19.4% (inactive)
COc1cc(C2CC(c3ccc(Cl)cc3)=Nc3c(N)nc(N)nc3N2)ccc1Oc1nc(Nc2ccc(F)cc2)nc(N(C)C)n1 (stereo not given); 33.7% (inactive)

Let me know recorded growth for `CCCn1c(NC(=O)c2cccc(C(N)=O)c2)nc2ccc(CN3CCCCC3)cc21` , thanks.
128% (inactive)
